Assay: In vivo pharmacokinetics in plasma after oral gavage (PO) in male CD-1 mice
Conditions: mouse; single PO dose 5 mg/kg, male CD-1 mice, plasma
Description: The purpose of this study is to determine the pharmacokinetics of the tested compounds in plasma, following oral gavage administration (PO) to male CD-1 mice. Animal Husbandry: Animals were group housed during acclimation and the study. […] Temperature and relative humidity were monitored daily. […] Dose Administration: the dose formulations were administered via oral gavage per facility SOPs. The dose volume were determined by the animals' body weight collected on the morning of dosing day […]
# true (1) = Tmax below 0.8 h (exclusive); false (0) = Tmax at/above 0.8 h

Examples from the recorded data:
INSERT INTO measurements (compound, classification) VALUES
  ('CC(C)(c1ccc(OCc2ocnc2S(C)(=O)=O)cc1)c1cc(Cl)c(OCCCl)c(Cl)c1', 'false (0)'),
  ('CC(C)(c1ccc(OCc2ccnc(NS(C)(=O)=O)n2)cc1)c1cc(Cl)c(OCCCl)c(Cl)c1', 'false (0)'),
  ('CC(C)(c1ccc(OCc2coc(NS(C)(=O)=O)n2)cc1)c1cc(Cl)c(OCCCl)c(Cl)c1', 'false (0)'),
  ('CCS(=O)(=O)Nc1nc(COc2ccc(C(C)(C)c3cc(Cl)c(OCCCl)c(C#N)c3)cc2)co1', 'false (0)'),
  ('Cc1cnc(NS(C)(=O)=O)nc1COc1ccc(C(C)(C)c2cc(Cl)c(OCCCl)c(C#N)c2)cc1', 'true (1)'),
  ('CC(C)(c1ccc(OCc2nc(S(C)(=O)=O)cs2)cc1)c1cc(Cl)c(OCCCl)c(C#N)c1', 'false (0)');

Q) Is it true that Tmax reported for C[C@H](Oc1ccc(C(C)(C)c2cc(Cl)c(OCCCl)c(C#N)c2)cc1)c1ccnc(NS(C)(=O)=O)n1 (single isomer, unassigned) is less than 0.8 h?
A) false (0)

Q) Do the same for CCS(=O)(=O)Nc1nccc(COc2ccc(C(C)(C)c3cc(Cl)c(OCCCl)c(C#N)c3)cc2)n1 please
A) false (0)
